Origin of measurements: ChEMBL document CHEMBL1146102

# Experimental System: Mitogen-activated protein kinase 1 (Homo sapiens)
# Sequence (P28482 whole entry): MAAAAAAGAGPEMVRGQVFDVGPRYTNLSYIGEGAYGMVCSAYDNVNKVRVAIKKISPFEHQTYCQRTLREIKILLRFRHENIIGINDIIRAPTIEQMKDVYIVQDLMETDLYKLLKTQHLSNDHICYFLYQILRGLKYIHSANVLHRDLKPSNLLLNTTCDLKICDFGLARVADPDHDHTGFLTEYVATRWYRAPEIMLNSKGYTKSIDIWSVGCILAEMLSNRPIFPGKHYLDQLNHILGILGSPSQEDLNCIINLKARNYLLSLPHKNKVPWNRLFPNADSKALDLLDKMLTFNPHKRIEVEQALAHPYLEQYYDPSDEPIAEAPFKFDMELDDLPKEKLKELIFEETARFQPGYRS
# Experiment Notes: Inhibition of ERK2 at 10 uM ATP
pIC50: −log10 of the molar value.
Observation Type: pIC50

[[record]]
molecule_smiles = "N[C@H](COc1cncc(-c2ccc3cnccc3c2)c1)Cc1c[nH]c2ccccc12"
experimental_system = "Mitogen-activated protein kinase 1 (Homo sapiens)"
reported_result = 6.04


---

# Experimental System: Casein kinase II (Homo sapiens, UniProt P19784+P67870+P68400)
# Sequence (P67870 whole entry): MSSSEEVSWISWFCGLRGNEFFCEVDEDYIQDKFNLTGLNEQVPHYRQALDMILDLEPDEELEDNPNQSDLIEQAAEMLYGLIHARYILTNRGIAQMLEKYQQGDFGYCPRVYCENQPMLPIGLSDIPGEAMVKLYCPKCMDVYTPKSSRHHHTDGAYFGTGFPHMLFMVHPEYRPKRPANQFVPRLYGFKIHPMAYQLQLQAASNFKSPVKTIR
# Sequence (P68400 whole entry): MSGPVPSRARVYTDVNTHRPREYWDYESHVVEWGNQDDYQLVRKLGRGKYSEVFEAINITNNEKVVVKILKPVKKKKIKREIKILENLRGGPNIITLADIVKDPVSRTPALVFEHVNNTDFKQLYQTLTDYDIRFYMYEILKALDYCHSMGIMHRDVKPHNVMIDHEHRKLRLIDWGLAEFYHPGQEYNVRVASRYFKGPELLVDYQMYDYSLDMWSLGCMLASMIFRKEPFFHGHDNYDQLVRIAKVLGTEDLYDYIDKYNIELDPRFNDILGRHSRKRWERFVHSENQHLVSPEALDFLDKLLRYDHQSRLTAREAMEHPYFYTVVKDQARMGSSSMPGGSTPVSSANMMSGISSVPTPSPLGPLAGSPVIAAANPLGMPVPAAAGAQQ
# Sequence (P19784 whole entry): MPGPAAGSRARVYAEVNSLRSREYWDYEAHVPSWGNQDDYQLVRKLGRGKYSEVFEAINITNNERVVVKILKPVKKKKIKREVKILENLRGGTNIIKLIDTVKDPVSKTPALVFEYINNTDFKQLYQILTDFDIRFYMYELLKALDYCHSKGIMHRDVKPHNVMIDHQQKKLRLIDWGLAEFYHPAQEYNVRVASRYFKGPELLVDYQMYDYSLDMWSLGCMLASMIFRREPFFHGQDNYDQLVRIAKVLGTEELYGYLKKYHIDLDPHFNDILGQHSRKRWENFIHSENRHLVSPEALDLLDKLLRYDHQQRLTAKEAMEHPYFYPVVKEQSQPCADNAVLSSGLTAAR
# Experiment Notes: Inhibition of CK2 at 10 uM ATP
pIC50: −log10 of the molar value.
Observation Type: pIC50

[[record]]
molecule_smiles = "N[C@H](COc1cncc(-c2ccc3cnccc3c2)c1)Cc1c[nH]c2ccccc12"
experimental_system = "Casein kinase II (Homo sapiens, UniProt P19784+P67870+P68400)"
observation_type = "pIC50"
reported_result = 4.93


---

# Experimental System: RAC-alpha serine/threonine-protein kinase (Homo sapiens)
# Experiment Notes: Activity against GSK3 phosphorylation in FL5.12-Akt1 cells
Observation Type: EC50 (nM)

[[record]]
molecule_smiles = "N[C@H](COc1cncc(-c2ccc3cnccc3c2)c1)Cc1c[nH]c2ccccc12"
measure_unit = "nM"
reported_result = 1500


---

# Experimental System: MAP kinase-activated protein kinase 2 (Homo sapiens, UniProt P49137)
# Sequence (P49137 whole entry): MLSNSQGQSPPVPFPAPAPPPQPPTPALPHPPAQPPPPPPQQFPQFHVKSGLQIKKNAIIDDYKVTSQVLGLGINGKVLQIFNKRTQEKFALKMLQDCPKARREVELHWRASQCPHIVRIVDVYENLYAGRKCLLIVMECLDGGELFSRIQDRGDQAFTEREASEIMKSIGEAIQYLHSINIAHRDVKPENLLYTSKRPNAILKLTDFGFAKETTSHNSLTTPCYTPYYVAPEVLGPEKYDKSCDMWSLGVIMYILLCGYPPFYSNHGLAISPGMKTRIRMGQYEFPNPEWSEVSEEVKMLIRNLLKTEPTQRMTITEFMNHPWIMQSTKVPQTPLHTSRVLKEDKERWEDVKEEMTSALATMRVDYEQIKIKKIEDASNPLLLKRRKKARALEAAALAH
# Experiment Notes: Inhibition of MAPKAP2 at 10 uM ATP
pIC50: −log10 of the molar value.
Observation Type: pIC50

[[record]]
molecule_smiles = "N[C@H](COc1cncc(-c2ccc3cnccc3c2)c1)Cc1c[nH]c2ccccc12"
experimental_system = "MAP kinase-activated protein kinase 2 (Homo sapiens, UniProt P49137)"
reported_result = "< 4.30"


---

# Experimental System: Proto-oncogene tyrosine-protein kinase Src (Homo sapiens, UniProt P12931)
# Sequence (P12931 2-536 limits assumed): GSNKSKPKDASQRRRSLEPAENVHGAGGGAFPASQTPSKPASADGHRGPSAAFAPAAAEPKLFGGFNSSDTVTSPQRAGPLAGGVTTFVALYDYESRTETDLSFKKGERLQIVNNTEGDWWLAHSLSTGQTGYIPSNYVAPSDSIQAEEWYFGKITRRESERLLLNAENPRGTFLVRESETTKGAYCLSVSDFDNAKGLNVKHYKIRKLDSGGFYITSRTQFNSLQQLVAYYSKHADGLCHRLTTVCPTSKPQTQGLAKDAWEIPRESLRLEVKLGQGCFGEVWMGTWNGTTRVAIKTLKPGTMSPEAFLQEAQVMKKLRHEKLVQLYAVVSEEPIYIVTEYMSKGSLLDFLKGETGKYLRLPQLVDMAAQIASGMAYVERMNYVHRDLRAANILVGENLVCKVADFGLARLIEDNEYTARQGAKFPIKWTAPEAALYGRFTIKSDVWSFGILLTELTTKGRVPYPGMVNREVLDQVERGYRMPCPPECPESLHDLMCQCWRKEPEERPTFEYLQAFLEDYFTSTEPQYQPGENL
Observation Type: IC50

[[record]]
molecule_smiles = "N[C@H](COc1cncc(-c2ccc3cnccc3c2)c1)Cc1c[nH]c2ccccc12"
experimental_system = "Proto-oncogene tyrosine-protein kinase Src (Homo sapiens, UniProt P12931)"
observation_type = "IC50"
reported_result = "> 50 µM"


---

# Experimental System: RAC-alpha serine/threonine-protein kinase (Homo sapiens, UniProt P31749)
# Sequence (P31749 whole entry): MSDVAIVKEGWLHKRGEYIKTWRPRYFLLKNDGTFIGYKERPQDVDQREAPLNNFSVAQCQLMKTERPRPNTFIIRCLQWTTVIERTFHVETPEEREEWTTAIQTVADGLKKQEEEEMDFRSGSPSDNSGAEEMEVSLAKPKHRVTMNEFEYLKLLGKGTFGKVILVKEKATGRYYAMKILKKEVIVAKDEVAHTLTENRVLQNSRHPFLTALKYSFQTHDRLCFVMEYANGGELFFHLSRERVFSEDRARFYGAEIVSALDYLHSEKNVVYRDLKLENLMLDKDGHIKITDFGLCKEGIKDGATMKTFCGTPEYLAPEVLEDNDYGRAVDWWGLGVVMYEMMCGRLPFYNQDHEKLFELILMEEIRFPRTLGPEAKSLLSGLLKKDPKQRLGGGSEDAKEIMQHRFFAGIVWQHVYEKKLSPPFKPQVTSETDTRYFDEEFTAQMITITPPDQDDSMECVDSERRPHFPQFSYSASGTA
# Experiment Notes: Inhibition of Akt1 at 50 uM
# label = true if inhibition >= 10% else false

[[record]]
molecule_smiles = "N[C@H](COc1cncc(NCc2ccncc2)c1)Cc1ccccc1"
assigned_label = "true"

[[record]]
molecule_smiles = "N[C@H](COc1cncc(-c2ccc([N+](=O)[O-])cc2)c1)Cc1c[nH]c2ccccc12"
assigned_label = "true"

[[record]]
molecule_smiles = "N[C@H](COc1cncc(NC(=O)c2cccnc2)c1)Cc1ccccc1"
assigned_label = "true"

[[record]]
molecule_smiles = "N[C@H](COc1cncc(NCc2cccnc2)c1)Cc1ccccc1"
assigned_label = "true"

[[record]]
molecule_smiles = "N=C(N)c1ccc(-c2cncc(OC[C@@H](N)Cc3c[nH]c4ccccc34)c2)cc1"
assigned_label = "true"

[[record]]
molecule_smiles = "N[C@H](COc1cncc(-c2cccc(S(N)(=O)=O)c2)c1)Cc1c[nH]c2ccccc12"
assigned_label = "false"

[[record]]
molecule_smiles = "N[C@H](COc1cncc(-c2ccc(S(N)(=O)=O)cc2)c1)Cc1c[nH]c2ccccc12"
assigned_label = "true"

[[record]]
molecule_smiles = "N=C(NO)c1ccc(-c2cncc(OC[C@@H](N)Cc3c[nH]c4ccccc34)c2)cc1"
assigned_label = "true"

[[record]]
molecule_smiles = "CC(=O)NCc1ccc(-c2cncc(OC[C@@H](N)Cc3c[nH]c4ccccc34)c2)cc1"
assigned_label = "false"

